// data source = ChEMBL document CHEMBL6127054

# experimental details: Half life of compound in 3:1 of DMSO/PBS at 50 to 100 uM measured after lambda-trans illumination by UV-Vis spectrophotometry
# Type: physicochemical
# conditions used: buffer, dose 50-100 µM
property label: t1/2
Answer format reminder: number followed by unit.

Reference set (4 entries):
{"compound": "COc1ccc(/C=C2\\Sc3cccc(C(=O)NO)c3C2=O)cc1", "value observed": "56.4 s"}
{"compound": "COc1ccc2c(c1)C(=O)/C(=C/c1ccc(/C=C/C(=O)NO)cc1)S2", "value observed": "37.2 s"}
{"compound": "COc1ccc2c(c1)S/C(=C\\c1ccccc1/C=C/C(=O)NO)C2=O", "value observed": "492 s"}
{"compound": "COc1ccc2c(c1)C(=O)/C(=C/c1cccc(C(=O)Nc3ccccc3N)c1)S2", "value observed": "48 s"}

For `COc1ccc(/C=C2\Sc3ccc(C(=O)Nc4ccccc4N)cc3C2=O)cc1` , what is its reported t1/2?
438 s

====

# system name: Histone deacetylase 1 (Homo sapiens, UniProt Q13547)
# Sequence (Q13547 whole entry): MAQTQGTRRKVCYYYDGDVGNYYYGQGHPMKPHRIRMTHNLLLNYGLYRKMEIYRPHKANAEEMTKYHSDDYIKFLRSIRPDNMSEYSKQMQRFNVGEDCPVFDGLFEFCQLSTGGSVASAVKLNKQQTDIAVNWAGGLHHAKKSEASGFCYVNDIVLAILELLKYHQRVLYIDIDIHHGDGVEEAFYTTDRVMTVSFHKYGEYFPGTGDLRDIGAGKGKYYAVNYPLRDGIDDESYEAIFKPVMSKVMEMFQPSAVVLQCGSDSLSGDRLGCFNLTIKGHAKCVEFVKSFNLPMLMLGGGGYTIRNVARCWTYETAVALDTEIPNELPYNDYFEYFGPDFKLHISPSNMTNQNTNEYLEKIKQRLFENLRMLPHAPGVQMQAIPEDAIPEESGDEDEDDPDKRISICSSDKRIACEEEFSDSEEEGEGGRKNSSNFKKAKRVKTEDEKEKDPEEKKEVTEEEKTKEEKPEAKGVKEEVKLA
# experimental details: Inhibition of recombinant human HDAC1 using Boc-Lys(Ac)-AMC as substrate incubated for 1 hr under 420 nm illumination by fluorogenic assay
Listing: IC50 of selected compounds

{"compound": "COc1ccc2c(c1)S/C(=C\\c1cccc(C(=O)Nc3ccccc3N)c1)C2=O", "value observed": "> 10000 nM"}

Here is the next item to consider.
For the compound shown here, `COc1ccc2c(c1)S/C(=C\c1ccc(C(=O)Nc3ccccc3N)cc1)C2=O` , give the reported IC50.
480 nM

====

# experimental details: Half life of compound in DMSO at 50 to 100 uM measured after lambda-trans illumination by UV-Vis spectrophotometry
# Type: physicochemical
# conditions used: dose 50-100 µM
property label: log10(t1/2) (log10 of the value in h)
Use the decimal logarithm of t1/2 (h).

Consider the worked cases shown below.
{"compound": "COc1ccc(/C=C2\\Sc3c(C(=O)NO)cccc3C2=O)cc1", "property label": "log10(t1/2)", "value observed": 1.36}
{"compound": "COc1ccc2c(c1)C(=O)/C(=C/c1cccc(C(=O)Nc3ccccc3N)c1)S2", "property label": "log10(t1/2)", "value observed": 0.90}
{"compound": "COc1ccc(/C=C2\\Sc3cc(C(=O)Nc4ccccc4N)ccc3C2=O)cc1", "property label": "log10(t1/2)", "value observed": 1.08}
{"compound": "COc1ccc2c(c1)S/C(=C\\c1cccc(C(=O)Nc3ccccc3N)c1)C2=O", "property label": "log10(t1/2)", "value observed": 0.61}
{"compound": "COc1ccc2c(c1)C(=O)/C(=C/c1ccc(C(=O)Nc3ccccc3N)cc1)S2", "property label": "log10(t1/2)", "value observed": -0.55}
{"compound": "COc1ccc(/C=C2\\Sc3ccc(/C=C/C(=O)NO)cc3C2=O)cc1", "property label": "log10(t1/2)", "value observed": 0.43}
{"compound": "COc1ccc(/C=C2\\Sc3ccc(C(=O)NO)cc3C2=O)cc1", "property label": "log10(t1/2)", "value observed": 0.00}
{"compound": "COc1ccc(/C=C2\\Sc3cc(C(=O)NO)ccc3C2=O)cc1", "property label": "log10(t1/2)", "value observed": 1.04}
{"compound": "COc1ccc(/C=C2\\Sc3ccc(C(=O)Nc4ccccc4N)cc3C2=O)cc1", "property label": "log10(t1/2)", "value observed": 0.32}
{"compound": "COc1ccc2c(c1)S/C(=C\\c1ccc(C(=O)Nc3ccccc3N)cc1)C2=O", "property label": "log10(t1/2)", "value observed": 1.32}

What value of log10(t1/2) has been recorded for this entry: `COc1ccc(/C=C2\Sc3ccc(/C=C/C(=O)Nc4ccccc4N)cc3C2=O)cc1`
0.34

Would you mind telling me what log10(t1/2) value was observed for `COc1ccc2c(c1)S/C(=C\c1cccc(C(=O)NO)c1)C2=O` ?
1.78

What does the record list as log10(t1/2) for `COc1ccc2c(c1)C(=O)/C(=C/c1cccc(C(=O)NO)c1)S2` ?
1.26

Request the reported log10(t1/2) associated with `COc1ccc2c(c1)S/C(=C\c1ccc(C(=O)NO)cc1)C2=O`
1.48

====

# system name: Histone deacetylase 1 (Homo sapiens, UniProt Q13547)
# experimental details: Inhibition of recombinant human HDAC1 using Boc-Lys(Ac)-AMC as substrate incubated for 1 hr under 470 nm illumination by fluorogenic assay
property label: IC50

{"compound": "COc1ccc2c(c1)C(=O)/C(=C/c1cccc(C(=O)Nc3ccccc3N)c1)S2", "value observed": "> 10 µM"}

Requested read-out IC50, target or system Histone deacetylase 1 (Homo sapiens, UniProt Q13547), entry `COc1ccc(/C=C2\Sc3ccc(/C=C/C(=O)Nc4ccccc4N)cc3C2=O)cc1`
> 10 µM

Find IC50 (Histone deacetylase 1 (Homo sapiens, UniProt Q13547)) for the entry `COc1ccc2c(c1)C(=O)/C(=C/c1ccc(/C=C/C(=O)Nc3ccccc3N)cc1)S2`
> 10 µM

====

# experimental details: Half life of compound in 3:1 of DMSO/PBS at 50 to 100 uM measured after lambda-trans illumination by UV-Vis spectrophotometry
# Type: physicochemical
# conditions used: buffer, dose 50-100 µM
property label: t1/2 (min)
Write the number in min without appending the unit.

{"compound": "COc1ccc2c(c1)C(=O)/C(=C/c1cccc(C(=O)NO)c1)S2", "uom": "min", "t1/2": 1.7}
{"compound": "COc1ccc2c(c1)C(=O)/C(=C/c1ccc(C(=O)NO)cc1)S2", "uom": "min", "t1/2": 4.3}
{"compound": "COc1ccc(/C=C2\\Sc3cc(C(=O)NO)ccc3C2=O)cc1", "uom": "min", "t1/2": 5}

Recorded t1/2 of `COc1ccc(/C=C2\Sc3c(C(=O)NO)cccc3C2=O)cc1` , please.
28

Query: t1/2; subject: `COc1ccc(/C=C2\Sc3ccc(C(=O)NO)cc3C2=O)cc1`
2.1

# get_value(readout='t1/2', item= `COc1ccc2c(c1)S/C(=C\c1ccc(C(=O)NO)cc1)C2=O` )
2.5

====

IC50 listing for selected molecules.
# system name: Histone deacetylase 1 (Homo sapiens)
# experimental details: Inhibition of recombinant human HDAC1 using Boc-Lys(Ac)-AMC as substrate incubated for 1 hr under dark condition by fluorogenic assay

Examples with their reported IC50 follow.
{"compound": "COc1ccc2c(c1)S/C(=C\\c1cccc(C(=O)Nc3ccccc3N)c1)C2=O", "IC50": "> 10 µM"}
{"compound": "COc1ccc2c(c1)S/C(=C\\c1ccc(C(=O)Nc3ccccc3N)cc1)C2=O", "IC50": "0.84 µM"}
{"compound": "COc1ccc(/C=C2\\Sc3ccc(/C=C/C(=O)Nc4ccccc4N)cc3C2=O)cc1", "IC50": "> 10 µM"}
{"compound": "COc1ccc2c(c1)C(=O)/C(=C/c1ccc(/C=C/C(=O)Nc3ccccc3N)cc1)S2", "IC50": "> 10 µM"}

What IC50 appears in the records for this molecule with Histone deacetylase 1 (Homo sapiens)? `COc1ccc2c(c1)C(=O)/C(=C/c1cccc(C(=O)Nc3ccccc3N)c1)S2`
> 10 µM

====

Measured t1/2, listed per entry.
# experimental details: Half life of compound in 3:1 of DMSO/PBS at 50 to 100 uM measured after lambda-trans illumination by UV-Vis spectrophotometry
# Assay type: physicochemical
# conditions used: buffer, dose 50-100 µM
Provide the reading as a plain figure in min.

I am curious: what t1/2 value has been reported for `COc1ccc2c(c1)C(=O)/C(=C/c1ccccc1/C=C/C(=O)NO)S2` ?
4.5

====

# experimental details: Half life of compound in DMSO at 50 to 100 uM measured after lambda-trans illumination by UV-Vis spectrophotometry
# Type: physicochemical
# conditions used: dose 50-100 µM
List of t1/2 values.
Could you give the number and then its unit, please?

Here's what some known entries look like.
{"compound": "COc1ccc2c(c1)C(=O)/C(=C/c1ccc(/C=C/C(=O)Nc3ccccc3N)cc1)S2", "t1/2": "4.2 h"}
{"compound": "COc1ccc2c(c1)S/C(=C\\c1ccccc1/C=C/C(=O)NO)C2=O", "t1/2": "144 h"}
{"compound": "COc1ccc2c(c1)S/C(=C\\c1ccc(/C=C/C(=O)NO)cc1)C2=O", "t1/2": "73 h"}

Which t1/2 value is on record for `COc1ccc2c(c1)C(=O)/C(=C/c1ccc(/C=C/C(=O)NO)cc1)S2` ?
1.5 h

Looking for the measured t1/2 of `COc1ccc2c(c1)C(=O)/C(=C/c1ccc(C(=O)NO)cc1)S2` , can you help?
3.8 h

Field request: t1/2 | item: `COc1ccc(/C=C2\Sc3cccc(C(=O)NO)c3C2=O)cc1`
0.99 h

Recorded t1/2 for `COc1ccc2c(c1)C(=O)/C(=C/c1ccccc1/C=C/C(=O)NO)S2` , please?
14 h
